Recorded values, source patent US20250017914A1.

Entries and their GI50
- Target system: BaF3 BRAF-KIAA1549 fusion cells (Homo sapiens)
- Construct: The BRAF-KIAA1549 fusion mutant was subcloned into pMXs-IRES-Blasticidin (RTV-016, Cell Biolabs, San Diego, CA); No tag given; Q9HCM3 (UPF0606 protein KIAA1549)
- Sequence (P15056 whole entry, change not shown, the tested form may be a part): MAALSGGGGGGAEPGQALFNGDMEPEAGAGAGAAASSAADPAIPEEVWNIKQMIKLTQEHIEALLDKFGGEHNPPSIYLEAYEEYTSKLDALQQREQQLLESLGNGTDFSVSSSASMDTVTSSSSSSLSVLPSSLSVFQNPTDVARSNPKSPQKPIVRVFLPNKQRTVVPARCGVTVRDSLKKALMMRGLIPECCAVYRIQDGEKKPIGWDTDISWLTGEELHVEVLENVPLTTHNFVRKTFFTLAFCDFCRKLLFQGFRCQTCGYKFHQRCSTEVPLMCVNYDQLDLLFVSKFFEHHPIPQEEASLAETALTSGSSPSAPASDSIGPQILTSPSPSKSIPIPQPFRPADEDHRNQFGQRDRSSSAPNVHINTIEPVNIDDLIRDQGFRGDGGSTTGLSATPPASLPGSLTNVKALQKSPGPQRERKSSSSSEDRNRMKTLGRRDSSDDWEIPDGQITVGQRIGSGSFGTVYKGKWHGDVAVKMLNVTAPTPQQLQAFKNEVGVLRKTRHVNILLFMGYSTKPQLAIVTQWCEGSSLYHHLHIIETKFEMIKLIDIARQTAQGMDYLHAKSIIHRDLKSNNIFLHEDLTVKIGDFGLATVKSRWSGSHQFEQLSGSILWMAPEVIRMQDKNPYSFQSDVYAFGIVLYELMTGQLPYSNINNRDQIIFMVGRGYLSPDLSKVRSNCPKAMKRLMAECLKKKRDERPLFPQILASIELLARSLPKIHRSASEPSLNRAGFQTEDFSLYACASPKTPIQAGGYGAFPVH
- Assay: BaF3 BRAF-KIAA1549 fusion cell proliferation assay (CellTiterGlo, 96 hours)
- Type: cell-based
- Conditions used: Table A1

// known answers, use as guide
Compound: CNc1cc2ncc(-c3cc(NC(=O)C[C@@H]4C[C@H](C(F)(F)F)CCO4)cnc3C)cc2cn1 (single isomer, unassigned) [Compound 35]
Target system: BaF3 BRAF-KIAA1549 fusion cells (Homo sapiens)
GI50: 20 to 100 nM
//
Compound: CNc1cc2ncc(-c3cc(NC(=O)c4ccnc(C(C)(C)C)c4)cnc3C)cc2cn1 [Compound 58]
Target system: BaF3 BRAF-KIAA1549 fusion cells (Homo sapiens)
GI50: 20 to 100 nM
//
Compound: CNc1cc2ncc(-c3cc(NC(=O)c4ccnc(C(F)(F)F)c4)ccc3C)cc2cn1 [Compound 2]
Target system: BaF3 BRAF-KIAA1549 fusion cells (Homo sapiens)
GI50: 20 to 100 nM
//
Compound: CNc1cc2ncc(-c3cc(NC(=O)[C@H](C)n4cnc(C(F)(F)F)n4)ccc3C)cc2cn1 (single isomer, unassigned) [Compound 68]
Target system: BaF3 BRAF-KIAA1549 fusion cells (Homo sapiens)
GI50: 20 to 100 nM
//
Compound: CNc1cc2ncc(-c3cc(NC(=O)c4cc(C(F)F)c(F)cn4)cnc3C)cc2cn1 [Compound 66]
Target system: BaF3 BRAF-KIAA1549 fusion cells (Homo sapiens)
GI50: 20 to 100 nM
//
Compound: CNc1cc2ncc(-c3cc(NC(=O)c4cc(C(F)(F)F)c(C)cn4)ccc3C)cc2cn1 [Compound 5]
Target system: BaF3 BRAF-KIAA1549 fusion cells (Homo sapiens)
GI50: 20 to 100 nM
//
Compound: CNc1cc2ncc(-c3cc(NC(=O)c4cc(C(F)F)ccn4)ccc3C)cc2cn1 [Compound 11]
Target system: BaF3 BRAF-KIAA1549 fusion cells (Homo sapiens)
GI50: 20 to 100 nM
//
Compound: CNc1cc2ncc(-c3cc(NC(=O)c4cc(C(C)(C)C#N)ccn4)cc(Cl)c3C)cc2cn1 [Compound 48]
Target system: BaF3 BRAF-KIAA1549 fusion cells (Homo sapiens)
GI50: ≥ 500 nM
//
Compound: CNc1cc2ncc(-c3cc(NC(=O)c4cc(C(C)(C)C#N)ccn4)ccc3Cl)cc2cn1 [Compound 41]
Target system: BaF3 BRAF-KIAA1549 fusion cells (Homo sapiens)
GI50: 20 to 100 nM
//
Compound: CNc1cc2ncc(-c3cc(NC(=O)c4ccnc(C(C)(C)F)c4)ccc3C)cc2cn1 [Compound 10]
Target system: BaF3 BRAF-KIAA1549 fusion cells (Homo sapiens)
GI50: < 20 nM

# next compound below
The value of GI50 measured for the compound CNc1cc2ncc(-c3cc(NC(=O)c4ccnc(C(C)(C)F)c4)cnc3C)cc2cn1 [Compound 24] turned out to be < 20 nM
